- PROTOCOL NOTES: ATG_NRF2_ARE_CIS: Attagene CIS-FACTORIAL HepG2 Assay for human Nuclear Factor Erythroid 2 Related Factor 2 (NFR2) response to Antioxidant Response Elements (ARE) (AID 2282992);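 on AC50: reporter mRNA level measured by RT-PCR and capillary electrophoresis fluorescence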
- RUN CONDITIONS: HepG2 Attagene ARE/NRF2 reporter, transcription factor activity; actives raise or lower the signal
Activity calls are given as the source filed them. How the source made its calls: active means hit-call score of the fitted dose curve at least 0.9, where 1 is the maximum; inactive means score below 0.9.

- SMILES DATA: "O=c1[nH]c(=O)n(Cl)c(=O)n1Cl"
  AC50: "inactive"
- SMILES DATA: "Clc1ccc(C(Cl)(Cl)Cl)cn1"
  AC50: "inactive"
- SMILES DATA: "CC(C)CP(=S)(S)CC(C)C"
  AC50: "inactive"
- SMILES DATA: "Clc1cccc(Cl)c1Cl"
  AC50: "inactive"
- SMILES DATA: "CCOC(=O)CC(=O)CCl"
  AC50: "181 µM (active)"
- SMILES DATA: "CC(F)(F)CC(F)(F)F"
  AC50: "inactive"
- SMILES DATA: "CS(=O)(=O)c1ccc(C(=O)C2C(=O)CCCC2=O)c(Cl)c1COCC(F)(F)F"
  AC50: "inactive"
- SMILES DATA: "[Cl][Sn]([c]1ccccc1)([c]1ccccc1)[c]1ccccc1"
  AC50: "0.0785 µM (active)"
